tested on: PSA synthesis in LNCaP/AR cells; test: PSA suppression assay in LNCaP/AR cells; format: cell-based; details: 48 h, read-out: IC50 (inhibition of PSA synthesis)
READOUT_TYPE: IC50 (nM)
Write the number in nM without appending the unit.

input: Under PSA synthesis in LNCaP/AR cells: report IC50 of N#Cc1ccc(O[C@H]2CC[C@H](NC(=O)c3ccc(N4CCC(CN5CCN(c6cc7c(cc6F)C(=O)N(C6CCC(=O)NC6=O)C7=O)CC5)CC4)nn3)CC2)cc1Cl (stereo partly shown) [Bavdegalutamide] .
output: 10

---

tested on: VCaP cells; assay: VCaP cell proliferation assay; type: cell-based, human; details: Homo sapiens, VCaP, 96 h, read-out: IC50 (inhibition of VCaP cell proliferation)
READOUT_TYPE: pIC50
Keep in mind that pIC50 stands for -log10 of concentration in molar terms.

input: Specify reported pIC50 for the compound shown: N#Cc1ccc(O[C@H]2CC[C@H](NC(=O)c3ccc(N4CCC(CN5CCN(c6cc7c(cc6F)C(=O)N(C6CCC(=O)NC6=O)C7=O)CC5)CC4)nn3)CC2)cc1Cl (stereo partly shown) [Bavdegalutamide]
output: 7.70
